tested on: microRNA 21; test: Selectivity index, ratio of Kd for 5'-FAM/3'-DAB-labeled UGUCGGGUAGCUUAUCAGACUGAUGUUGACUGUUGAAUCUCAUGGCAACACCAGUCGAUGGGCUGUCUGACA pre-miRNA-21 (unknown origin) in presence of tRNA to Kd for 5'-FAM/3'-DAB-labeled UGUCGGGUAGCUUAUCAGACUGAUGUUGACUGUUGAAUCUCAUGGCAACACCAGUCGAUGGGCUGUCUGACA pre-miRNA-21 (unknown origin); assay type: nucleic-acid assay
Ratio listing for selected compounds.
Reply briefly: the number, and no unit.

Exercise: State the recorded Ratio for this entry: NC[C@@H]1O[C@H](O[C@H]2[C@@H](O)[C@H](O[C@@H]3[C@@H](O)[C@H](N)C[C@H](N)[C@H]3O[C@H]3O[C@H](CN)[C@@H](O)[C@H](O)[C@H]3N)O[C@@H]2CO)[C@H](N)[C@@H](O)[C@@H]1O [FRAMYCETIN]
Key: 1

Exercise: State the recorded Ratio for this entry: CC(=O)Nc1nc(-c2cccc(NC(=O)CCC(=O)N[C@@H](Cc3cn(C[C@H]4O[C@@H](O[C@@H]5[C@@H](O)[C@H](N)C[C@H](N)[C@H]5O[C@H]5O[C@H](CN)[C@@H](O)[C@H](O)[C@H]5N)[C@H](O)[C@@H]4O[C@H]4O[C@@H](CN)[C@@H](O)[C@H](O)[C@H]4N)nn3)C(=O)N[C@@H](CCCCN)C(N)=O)c2)cs1
Key: 1

Exercise: State the recorded Ratio for this entry: Cc1ccc(C(=O)Nc2nc(-c3cccc(NC(=O)CCC(=O)N[C@@H](Cc4cn(C[C@H]5O[C@@H](O[C@@H]6[C@@H](O)[C@H](N)C[C@H](N)[C@H]6O[C@H]6O[C@H](CN)[C@@H](O)[C@H](O)[C@H]6N)[C@H](O)[C@@H]5O[C@H]5O[C@@H](CN)[C@@H](O)[C@H](O)[C@H]5N)nn4)C(=O)N[C@@H](C)C(N)=O)c3)cs2)cc1
Key: 1.3
